This collection of values is drawn from paper PMC10303271.

Target: M4 D (Homo sapiens, UniProt P08173, A203G/Y113C)
Construct: purchased NIMH Psychoactive Drug Screening Program (PDSP)
Sequence (P08173 1-479 Y113C/A203G): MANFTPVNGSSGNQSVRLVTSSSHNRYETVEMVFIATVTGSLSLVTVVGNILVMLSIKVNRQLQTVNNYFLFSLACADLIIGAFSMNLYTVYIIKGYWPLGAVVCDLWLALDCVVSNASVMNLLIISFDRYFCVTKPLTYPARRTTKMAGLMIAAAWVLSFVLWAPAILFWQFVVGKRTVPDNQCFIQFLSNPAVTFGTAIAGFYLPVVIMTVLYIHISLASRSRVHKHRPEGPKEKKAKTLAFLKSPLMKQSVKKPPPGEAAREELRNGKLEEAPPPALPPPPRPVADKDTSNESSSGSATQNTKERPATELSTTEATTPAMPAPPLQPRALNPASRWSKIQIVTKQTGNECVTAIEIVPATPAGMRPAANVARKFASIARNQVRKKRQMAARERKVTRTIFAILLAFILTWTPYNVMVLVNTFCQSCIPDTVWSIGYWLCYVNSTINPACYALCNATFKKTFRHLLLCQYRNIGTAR
Assay: PDSP primary binding M4 D
Settings: primary binding, 10,000 nM; last figure of the line = mean of the 4 before it; read-out: M4 D, PDSP raw data, mean
For each entry below, report its inhibition at 10 µM value.
Answers are plain numbers, in %.

// solved cases for inhibition at 10 µM follow
Compound: CCc1noc(-c2ncn3c2CN=C(c2ccccc2F)c2cc(C4CC4)ccc2-3)n1 [Compound 44]
Target Desc: M4 D (Homo sapiens, UniProt P08173, A203G/Y113C)
inhibition at 10 µM / %: 35.9
--
Compound: C[C@H]1N=C(c2ccccc2F)c2cc(Cl)ccc2-n2cnc(-c3nc(C4CC4)no3)c21 [Compound 38]
Target Desc: M4 D (Homo sapiens, UniProt P08173, A203G/Y113C)
inhibition at 10 µM / %: -18.7
--
Compound: C#Cc1ccc2c(c1)C(c1ccccn1)=N[C@@H](C)c1c(C(=O)NC)ncn1-2 [Compound 23]
Target Desc: M4 D (Homo sapiens, UniProt P08173, A203G/Y113C)
inhibition at 10 µM / %: 50.5

# context switch: different compound, same inhibition at 10 µM
I'd like to know its inhibition at 10 µM. The compound in question is C#Cc1ccc2c(c1)C(c1ccccn1)=N[C@@H](C)c1c(C(=O)N(C)C)ncn1-2 [Compound 31] 56.8
